Tested on: Yap1 mRNA
Test: Dose-dependent inhibition of human Yap1 in A-431 cells (Example 8, 10,000 cells per well, RTS4814)
Format: cell-based
Settings: 500.0 nM; A-431 cells, 10,000 cells per well, free uptake, approximately 48 hours, RTS4814
Strand notation (5' to 3'): a small letter for the sugar, then the base; units joined by * are phosphorothioate-linked, units joined directly phosphodiester-linked; [ ] holds rarer units or linkages, { } end groups; capitals alone tell only the bases. k = constrained ethyl (cEt); [5mC] = 5-methylcytosine; d = 2'-deoxy (DNA)
Reported Yap1 mRNA, % UTC values are given for each entry in this list.
Reply numerically in % UTC, unit not repeated.

1076489 (k[5mC]*kA*kA*dA*dA*dT*dA*dG*dG*dT*dG*dA*dG*kT*k[5mC]*kA; antisense) [compound 1076489]; 4
1074792 (kA*kT*k[5mC]*dA*dA*dT*dG*dT*dG*d[5mC]*dT*d[5mC]*d[5mC]*kA*kT*k[5mC]; antisense) [compound 1074792]; 7
1076293 (kG*k[5mC]*kT*dT*dA*dT*dT*dA*dT*dT*dG*dA*dG*kT*kT*kA; antisense) [compound 1076293]; 6

Input: Any idea what Yap1 mRNA, % UTC was measured for 1076077 (kG*kG*kA*dT*dT*dA*dA*dA*dG*dT*dT*dT*dT*k[5mC]*kA*k[5mC]; antisense) [compound 1076077] ?
Output: 9

* * *

System: Yap1 mRNA
Experiment: Antisense inhibition of human Yap1 in A-431 cells by cEt gapmers, single dose (Example 2, RTS4814)
Format: cell-based
Details: Table 24; Yap1 mRNA as percent of untreated control; 3-10-3 cEt gapmers targeting SEQ ID NO.: 1, and 2
Strand notation (5' to 3'): a small letter for the sugar, then the base; units joined by * are phosphorothioate-linked, units joined directly phosphodiester-linked; [ ] holds rarer units or linkages, { } end groups; capitals alone tell only the bases. k = constrained ethyl (cEt); [5mC] = 5-methylcytosine; d = 2'-deoxy (DNA)
value kind: YAP1 (% UTC)
Reply numerically in % UTC, unit not repeated.

1074474 (k[5mC]*k[5mC]*kA*dA*d[5mC]*d[5mC]*d[5mC]*d[5mC]*d[5mC]*d[5mC]*d[5mC]*dA*d[5mC]*k[5mC]*kG*kA; antisense) [Compound 1074474]; 71

Input: Any idea what YAP1 (% UTC) was measured for 1075690 (k[5mC]*kG*kT*dT*dA*dA*d[5mC]*dA*dA*d[5mC]*dT*dA*dT*kA*k[5mC]*kA; antisense) [Compound 1075690] ?
Output: 33

Input: Any idea what YAP1 (% UTC) was measured for 1076490 (antisense k[5mC]*k[5mC]*kA*dA*dA*dA*dT*dA*dG*dG*dT*dG*dA*kG*kT*k[5mC]) [Compound 1076490] ?
Output: 2

Input: Any idea what YAP1 (% UTC) was measured for 1075498 (k[5mC]*kA*kT*dT*dA*dT*dA*dT*dA*dA*dT*dG*d[5mC]*kA*kG*kG; antisense) [Compound 1075498] ?
Output: 9

Input: Any idea what YAP1 (% UTC) was measured for 1074922 (antisense k[5mC]*kT*kT*dT*d[5mC]*d[5mC]*dA*d[5mC]*dT*d[5mC]*dA*dA*dG*kT*kT*kA) [Compound 1074922] ?
Output: 87

Input: Any idea what YAP1 (% UTC) was measured for 1074954 (antisense k[5mC]*k[5mC]*kG*dG*dG*dT*dT*dT*dT*dT*dG*dT*d[5mC]*kA*kT*k[5mC]) [Compound 1074954] ?
Output: 91

* * *

Test system: Yap1 mRNA
Experiment: Dose-dependent inhibition of human Yap1 in A-431 cells (Example 7, 10,000 cells per well, RTS36584)
Type: cell-based
Conditions: Table 58, 15.6 nM, free uptake, A-431 cells 10,000 cells per well, 48 hours
Strand notation (5' to 3'): a small letter for the sugar, then the base; units joined by * are phosphorothioate-linked, units joined directly phosphodiester-linked; [ ] holds rarer units or linkages, { } end groups; capitals alone tell only the bases. k = constrained ethyl (cEt); [5mC] = 5-methylcytosine; d = 2'-deoxy (DNA)
value kind: Yap1 mRNA, % UTC (% UTC)
Reply numerically in % UTC, unit not repeated.

958577 (kT*k[5mC]*kT*dG*dT*dG*dG*d[5mC]*dT*dA*d[5mC]*dT*dG*kG*k[5mC]*kA; antisense) [compound 958577]; 81
958477 (kA*kT*kT*dT*d[5mC]*d[5mC]*dG*dG*dT*dG*d[5mC]*dA*dT*kG*kT*kG; antisense) [compound 958477]; 83
958532 (kG*kA*kA*dG*dT*dA*dG*dG*dA*dG*d[5mC]*dA*dA*kG*kT*k[5mC]; antisense) [compound 958532]; 88

Input: Any idea what Yap1 mRNA, % UTC was measured for 958472 (kT*k[5mC]*k[5mC]*dT*dT*dA*dG*dA*dT*d[5mC]*d[5mC]*dT*dT*k[5mC]*kA*k[5mC]; antisense) [compound 958472] ?
Output: 92

Input: Any idea what Yap1 mRNA, % UTC was measured for 715483 (k[5mC]*kT*k[5mC]*dT*dT*dT*dG*dG*dA*dA*dA*d[5mC]*d[5mC]*kA*kT*kT) [compound 715483] ?
Output: 84

Input: Any idea what Yap1 mRNA, % UTC was measured for 958567 (kT*k[5mC]*kA*dA*d[5mC]*d[5mC]*dT*dA*dT*dG*dA*dA*d[5mC]*kT*kA*kT; antisense) [compound 958567] ?
Output: 99

* * *

Reported YAP1 (% UTC) values are given for each entry in this list.
Tested on: Yap1 mRNA
Assay: Antisense inhibition of human Yap1 in A-431 cells by cEt gapmers, single dose (Example 3, RTS36584)
Assay type: cell-based
Conditions: Table 11; A-431 cells, 5,000 cells per well, free uptake, 2,000 nM oligonucleotide, approx. 48 hours; primer probe set RTS36584; Yap1 mRNA normalized to RIBOGREEN, percent of untreated control
Description: Modified oligonucleotides were designed to target a Yap1 nucleic acid and were tested for their effect on Yap1 mRNA level in vitro. The modified oligonucleotides were tested in a series of experiments that had similar culture conditions. […] After a treatment period of approximately 48 hours, RNA was isolated from the cells and Yap1 mRNA levels were measured by quantitative real-time RTPCR. […] Yap1 mRNA levels were normalized to total RNA content, as measured by RIBOGREEN®. […]
Strand notation (5' to 3'): a small letter for the sugar, then the base; units joined by * are phosphorothioate-linked, units joined directly phosphodiester-linked; [ ] holds rarer units or linkages, { } end groups; capitals alone tell only the bases. k = constrained ethyl (cEt); [5mC] = 5-methylcytosine; d = 2'-deoxy (DNA)
Reply numerically in % UTC, unit not repeated.

958733 (antisense kT*kA*kA*dT*dA*dG*dA*d[5mC]*dT*dA*dG*dA*d[5mC]*kT*kT*kA) [Compound 958733]; 67

Input: Reported YAP1 (% UTC) for Yap1 mRNA, given 958533 (kG*k[5mC]*kA*dT*dA*dG*dA*dA*dG*dT*dA*dG*dG*kA*kG*k[5mC]; antisense) [Compound 958533] ?
Output: 3

Input: Reported YAP1 (% UTC) for Yap1 mRNA, given 958613 (antisense k[5mC]*k[5mC]*kT*dG*dA*dA*dG*d[5mC]*d[5mC]*dG*dA*dG*dT*kT*k[5mC]*kA) [Compound 958613] ?
Output: 15

Input: Reported YAP1 (% UTC) for Yap1 mRNA, given 958643 (antisense kT*kA*kG*d[5mC]*dA*dA*d[5mC]*d[5mC]*d[5mC]*dA*d[5mC]*d[5mC]*d[5mC]*kT*kG*kG) [Compound 958643] ?
Output: 59

Input: Reported YAP1 (% UTC) for Yap1 mRNA, given 958763 (antisense k[5mC]*kA*k[5mC]*dA*dA*dT*dA*d[5mC]*dA*dA*dG*dA*dT*kG*k[5mC]*kA) [Compound 958763] ?
Output: 3

Input: Reported YAP1 (% UTC) for Yap1 mRNA, given 958748 (antisense kA*k[5mC]*kA*dT*dG*dT*dG*dA*d[5mC]*dA*dT*dT*d[5mC]*k[5mC]*kG*kG) [Compound 958748] ?
Output: 83

* * *

Test system: Yap1 mRNA
Experiment: Antisense inhibition of human Yap1 in A-431 cells by cEt gapmers, single dose (Example 1, RTS4814)
Assay type: cell-based
Conditions: Table 2; A-431 cells, free uptake, 2,000 nM, approximately 48 hours, RTS4814; Yap1 mRNA relative to untreated control cells
Strand notation (5' to 3'): a small letter for the sugar, then the base; units joined by * are phosphorothioate-linked, units joined directly phosphodiester-linked; [ ] holds rarer units or linkages, { } end groups; capitals alone tell only the bases. k = constrained ethyl (cEt); [5mC] = 5-methylcytosine; d = 2'-deoxy (DNA)
value kind: YAP1 (% UTC)
Reply numerically in % UTC, unit not repeated.

Solved cases below.
715527 (kT*k[5mC]*kA*d[5mC]*dT*dT*dA*d[5mC]*dT*dT*dT*dA*dA*kG*kA*kA; antisense) [Compound 715527]; 111
715593 (antisense kA*kT*kT*dT*d[5mC]*dT*dT*dT*dG*dG*d[5mC]*dA*dG*kA*kG*kA) [Compound 715593]; 60
715557 (kG*kG*kA*dA*dG*dT*dT*dA*dT*dT*d[5mC]*dA*dG*k[5mC]*kA*kG; antisense) [Compound 715557]; 46
715545 (kA*k[5mC]*k[5mC]*dA*dA*d[5mC]*dT*dA*d[5mC]*dT*dT*dG*dA*kA*kG*kA; antisense) [Compound 715545]; 87

Input: Any idea what YAP1 (% UTC) was measured for 715542 (kT*kA*k[5mC]*dT*dT*dG*dA*dA*dG*dA*dA*d[5mC]*dT*kA*kT*kT; antisense) [Compound 715542] ?
Output: 120

Input: Any idea what YAP1 (% UTC) was measured for 715611 (antisense k[5mC]*kT*kT*dT*dA*dA*dG*d[5mC]*d[5mC]*dA*d[5mC]*dA*dT*kG*kG*kT) [Compound 715611] ?
Output: 106

Input: Any idea what YAP1 (% UTC) was measured for 715419 (kG*kA*k[5mC]*d[5mC]*dA*dG*dA*dA*dG*dA*dT*dG*dT*k[5mC]*kT*kT; antisense) [Compound 715419] ?
Output: 107

Input: Any idea what YAP1 (% UTC) was measured for 715587 (kT*kG*kA*dA*dA*dA*dG*dG*dT*d[5mC]*dT*dG*dG*kA*kA*k[5mC]; antisense) [Compound 715587] ?
Output: 79

Input: Any idea what YAP1 (% UTC) was measured for 715467 (antisense k[5mC]*kA*kT*d[5mC]*dT*d[5mC]*d[5mC]*dT*dT*d[5mC]*d[5mC]*dA*dG*kT*kG*kT) [Compound 715467] ?
Output: 77

Input: Any idea what YAP1 (% UTC) was measured for 715551 (kA*kT*kA*dG*dG*dA*dA*dG*dT*dT*dG*dT*dT*kG*kA*k[5mC]; antisense) [Compound 715551] ?
Output: 82
